# measured_target: PD-1/PD-L1 (Homo sapiens, UniProt Q9NZQ7)
# Sequence (Q9NZQ7 19-238 limits assumed): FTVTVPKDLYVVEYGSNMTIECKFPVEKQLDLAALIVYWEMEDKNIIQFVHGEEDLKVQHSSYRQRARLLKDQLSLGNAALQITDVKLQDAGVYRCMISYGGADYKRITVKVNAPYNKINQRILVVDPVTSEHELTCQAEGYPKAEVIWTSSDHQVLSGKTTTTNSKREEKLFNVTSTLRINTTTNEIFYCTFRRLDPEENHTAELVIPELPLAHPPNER
# experiment_summary: PD-1/PD-L1 biochemical protein-protein interaction assay (ALPHA)
# experimental_parameters: 0.3 nM His tagged PD-L1, 2.5 nM biotinylated Fc-PD-1; 60 minutes at 25° C.; read-out: IC50 PD-L1-PD1
readout_label: log10 of IC50 (log10 of the value in nM)
Scale type: logarithmic (base 10). Underlying IC50 unit: nM.

Guide cases for log10 of IC50, answers given:
>>> reported_measurement("COc1nc(-c2cccc(-c3cccc(-c4ccc5c(c4)OCCNC5)c3Cl)c2Cl)ccc1CNC[C@@H](O)CC(=O)O [Compound 6]")
-0.37
>>> reported_measurement("COc1nc(-c2cccc(-c3cccc(-c4cc5c(s4)CNCC5)c3Cl)c2Cl)ccc1CNC[C@@H]1CCC(=O)N1 [Compound 34]")
0.05

Each molecule below has a recorded value; state its log10 of IC50.
1. Cc1c(COc2cc(OCc3cncc(C#N)c3)c(CN[C@@](C)(CO)C(=O)O)cc2Cl)cccc1-c1cccc(-c2ccc3c(c2)NCCNC3)c1C [Compound 4]
2. Cc1c(COc2cc(OCc3cncc(C#N)c3)c(CNC[C@@H](O)CC(=O)O)cc2Cl)cccc1-c1cccc(-c2ccc3c(c2)CNCC3NC(=O)NCC#N)c1C (stereo partly shown) [Compound 17]

// result
[-1.19, -0.76]

Hey, quick one: what's log10 of IC50 for each of these?
1. COc1nc(O[C@H]2CCc3c(-c4cccc(-c5nc6c(s5)CCNC6)c4Cl)cccc32)c(C(F)(F)F)cc1CN1CC[C@@H](C(=O)O)C1 [Compound 2]
2. C[C@@](CO)(NCc1cc(Br)c(OCc2cccc(-c3cccc(-c4ccc5c(c4)CNCC5)c3Cl)c2Cl)nc1OCc1cncc(C#N)c1)C(=O)O [Compound 22]
3. COc1nc(-c2cccc(-c3cccc(-c4cc5c(cn4)CNC5)c3Cl)c2Cl)ccc1CNC[C@@H]1CCC(=O)N1 [Compound 23]

// result
1. -1.19
2. -0.82
3. -0.50

Batch request: log10 of IC50 per item, same order as input.
1. C[C@](CO)(NCc1cc(Cl)c(OCc2cccc(-c3cccc(-c4ccc5c(c4)CNCC5)c3Cl)c2Cl)nc1OCc1cncc(C#N)c1)C(=O)O [Compound 29]
2. Cc1c(COc2cc(OCc3cncc(C#N)c3)c(CNC[C@@H](O)CC(=O)O)cc2Cl)cccc1-c1cccc(-c2ccc3c(c2)NC(=O)CNC3)c1C [Compound 11]

// result
1: -0.43; 2: -0.16
